// data source = ChEMBL document CHEMBL3425499

Test system: MDA-MB-231
Assay: Cytotoxicity against Stat3-activated human MDA-MB-231 cells assessed as growth inhibition at 20 ug/ml after 72 hrs by CyQuant assay
Format: functional, cell-based
The source made the active and inactive calls. No cut-off for these calls is given here.
measuredParameter: inhibition

C[C@]1(O)CC[C@@H]2C(C(=O)O)=CO[C@@H](O[C@@H]3O[C@H](CO)[C@@H](O)[C@H](O)[C@H]3O)[C@@H]21 inactive
COC(=O)C1=CO[C@@H](O[C@@H]2O[C@H](CO)[C@@H](O)[C@H](O)[C@H]2O)[C@H]2[C@@H]1[C@H](OC(C)=O)C[C@]2(C)O inactive
COC(=O)C1=CO[C@@H](O[C@@H]2O[C@H](CO)[C@@H](O)[C@H](O)[C@H]2O)[C@H]2[C@@H]1[C@H](OC(C)=O)C[C@]2(C)OC(C)=O inactive

* * *

Test: Antioxidant activity assessed as DPPH free radical scavenging activity measured as decoloration of a MeOH solution after 10 mins by spectrophotometry
Format: physicochemical
measuredParameter: log10 IC50 (log10 of the value in µg/mL)
# log10 transformed; quantity=IC50; unit=µg/mL

The examples below pair each entry with its known result.
compound	value
COC(=O)C1=CO[C@@H](O[C@@H]2O[C@H](CO)[C@@H](O)[C@H](O)[C@H]2O)[C@H]2[C@@H]1[C@H](O)C[C@]2(C)O [SHANZHISIDE METHYL ESTER]	1.99
COC(=O)C1=CO[C@@H](O[C@@H]2O[C@H](CO)[C@@H](O)[C@H](O)[C@H]2O)[C@H]2[C@@H]1[C@H](OC(=O)/C=C/c1ccc(O)cc1)C[C@]2(C)OC(C)=O	2.69
COC(=O)C1=CO[C@@H](O[C@@H]2O[C@H](CO)[C@@H](O)[C@H](O)[C@H]2O)[C@H]2[C@@H]1[C@H](O)C[C@]2(C)OC(C)=O	2.04
C[C@]1(O)C[C@@H](O)[C@@H]2C(C(=O)O)=CO[C@@H](O[C@@H]3O[C@H](CO)[C@@H](O)[C@H](O)[C@H]3O)[C@@H]21 [SHANZHISIDE]	1.90
COC(=O)C1=CO[C@@H](O[C@@H]2O[C@H](CO)[C@@H](O)[C@H](O)[C@H]2O)[C@H]2[C@@H]1[C@H](OC(C)=O)C[C@]2(C)O	2.46

Tell me the measured log10 IC50 of O=c1c(O)c(-c2ccc(O)c(O)c2)oc2cc(O)cc(O)c12 , please. 0.98

Tell me the measured log10 IC50 of O=C(O)c1cc(O)c(O)c(O)c1 , please. 0.45

Tell me the measured log10 IC50 of O=C1O[C@H]([C@@H](O)CO)C(O)=C1O , please. 0.88
